Just for reference, patent US7338799B2 is where these values come from.

Target: hCHT (Homo sapiens)
Construct: The hCHT cDNA encodes a protein of 580 amino acids; expressed in transfected cells; host or cells: COS-7 (transient, FuGene 6, pcDNA3)
Sequence (Q9GZV3 whole entry): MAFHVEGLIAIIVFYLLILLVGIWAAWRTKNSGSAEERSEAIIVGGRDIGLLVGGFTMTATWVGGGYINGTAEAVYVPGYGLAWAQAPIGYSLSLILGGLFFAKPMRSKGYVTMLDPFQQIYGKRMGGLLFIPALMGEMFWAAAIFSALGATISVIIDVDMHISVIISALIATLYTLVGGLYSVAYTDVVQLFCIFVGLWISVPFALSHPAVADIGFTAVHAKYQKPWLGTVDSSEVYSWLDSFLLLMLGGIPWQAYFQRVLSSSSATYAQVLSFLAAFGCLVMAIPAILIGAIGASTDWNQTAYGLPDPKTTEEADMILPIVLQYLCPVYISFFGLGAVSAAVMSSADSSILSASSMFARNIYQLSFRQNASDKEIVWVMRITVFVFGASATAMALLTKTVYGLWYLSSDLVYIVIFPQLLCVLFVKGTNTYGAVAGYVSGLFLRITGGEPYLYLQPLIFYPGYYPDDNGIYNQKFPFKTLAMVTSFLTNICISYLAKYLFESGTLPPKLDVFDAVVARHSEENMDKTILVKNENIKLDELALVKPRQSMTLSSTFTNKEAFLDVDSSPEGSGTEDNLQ
Assay: [3H]choline transport in resealed membrane vesicles from hCHT transfected COS-7 cells
Assay type: biochemical
Details: read-out: Ki for inhibition of [3H]choline uptake; resealed membrane vesicles, hCHT, 20 nM [3H]choline
RECORDED_METRIC: pKi
The meaning of pKi here: minus log10 of the concentration in molar units.

Task item: Give reported pKi for C[N+]1(C)CCOC(O)(c2ccc(-c3ccc(C4(O)C[N+](C)(C)CCO4)cc3)cc2)C1.[Br-].[Br-] (stereo not shown) (hCHT (Homo sapiens))
Reply: 8.30
